Cited source for all entries: PubChem BioAssay AID2060490

# System: 885512-296-R-J2-PDC complex spheroid viability;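 further: spheroids exposed to the compounds for one week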
# method_description: Anticancer human tumor 885512-296-R-J2-PDC patient-derived breast carcinoma cell line growth inhibition [GQUAD]
# experimental_conditions: curve of first compound; second compound 1 µM
Below, each entry is listed alongside its reported IC50.

Please tell me: IC50 of Cc1[nH]c2ccccc2c1CCNCc1ccc(/C=C/C(=O)NO)cc1 + Cc1cnc(CNC(=O)c2c(=O)c3ccc(N4CCCN(C)CC4)nc3n3c2sc2ccccc23)cn1 , system 885512-296-R-J2-PDC complex spheroid viability?;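 further: spheroids exposed to the compounds for one week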
< 0.999 nM

Please tell me: IC50 of CCCS(=O)(=O)Nc1ccc(F)c(C(=O)c2c[nH]c3ncc(-c4ccc(Cl)cc4)cc23)c1F + Cc1[nH]c2ccc(F)cc2c1-c1nc2c3cccnc3c3ncccc3c2[nH]1 , system 885512-296-R-J2-PDC complex spheroid viability?;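 further: spheroids exposed to the compounds for one week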
49.3 nM

Please tell me: IC50 of CC1COCCN1c1cc(C2(O)CC3CCC(C2)O3)c2cnn(-c3ccn[nH]3)c2n1 (stereo not drawn) + CN(C)c1ccc(Nc2c3ccc(NC(=O)CCN4CCCC4)cc3nc3cc(NC(=O)CCN4CCCC4)ccc23)cc1 , system 885512-296-R-J2-PDC complex spheroid viability?;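 further: spheroids exposed to the compounds for one week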
< 31.6 nM
